system tested: Sodium-dependent noradrenaline transporter (Homo sapiens, UniProt P23975)
Sequence (P23975 whole entry): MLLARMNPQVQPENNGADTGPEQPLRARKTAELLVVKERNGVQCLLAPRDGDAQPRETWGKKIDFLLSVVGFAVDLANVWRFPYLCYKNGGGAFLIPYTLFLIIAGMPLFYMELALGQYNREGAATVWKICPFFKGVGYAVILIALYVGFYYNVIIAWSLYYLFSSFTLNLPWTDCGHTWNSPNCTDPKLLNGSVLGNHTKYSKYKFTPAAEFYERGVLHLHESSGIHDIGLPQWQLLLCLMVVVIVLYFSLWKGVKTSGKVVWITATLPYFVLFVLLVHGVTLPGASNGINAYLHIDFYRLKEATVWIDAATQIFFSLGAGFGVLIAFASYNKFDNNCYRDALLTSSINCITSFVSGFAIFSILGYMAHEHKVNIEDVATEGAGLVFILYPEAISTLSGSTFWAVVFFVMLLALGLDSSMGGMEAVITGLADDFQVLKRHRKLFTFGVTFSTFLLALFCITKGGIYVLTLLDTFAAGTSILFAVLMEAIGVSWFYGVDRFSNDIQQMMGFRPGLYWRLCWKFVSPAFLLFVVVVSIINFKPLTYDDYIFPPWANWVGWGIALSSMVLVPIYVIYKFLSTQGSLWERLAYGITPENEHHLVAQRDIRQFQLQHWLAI
assay remarks: Inhibition of noradrenaline reuptake at human noradrenaline transporter expressed in HEK293 cells after 15 mins by scintillation counting
pIC50: −log10 of the molar value.
property measured: pIC50

Consider the worked cases shown below.
# mol smiles, pIC50
records = [
    ("CC(=O)N(Cc1ccc2ccccc2c1)[C@@H]1CCNC1", 6.14),
    ("O=C(c1ccc2ccccc2c1)N(C1CCCC1)[C@@H]1CCNC1", 6.17),
]

1: CC(=O)N(Cc1ccc2ccccc2c1)C1CCNCC1
2: CC(C)CN(C(=O)c1ccc2ccccc2c1)[C@H]1CCNC1
QUERY: Between the two listed entries 1 and 2 , which has its pIC50 at the higher number? Your answer should be the label of the entry you select.
RESULT: 2
(2: 7.62, 1: 5.05)

These data points were gathered from ChEMBL document CHEMBL1156048.
